Target: T1, full-length spike protein of SARS-CoV-2 (Wuhan strain) (SARS-CoV-2 (Wuhan strain), UniProt P0DTC2 14-1273)
T1 construct: whole, on cells; Expressed in 293T cells
Assay: ACE2 competition, spike on 293T cells, antibody 4 µg/mL
Define the label as T when binding amount (%) of ACE2 protein is strictly less than 2% and as F in all remaining cases.

Ab496 (antibody, V domains shown) VH: EVQLVQSGPEVKKPGTSVKVSCKASGFIFTNSAVQWVRQARGQRLEWIGWIVVGSGNPNYAQKFQERVTITRDRSTSTAYMELSSLTSEDTAVYYCAAFPYYYDNSGSGPWGQGTLVTVSS VL: DIQLTQSPSSLSASVGDRVTITCQASQDIRNNLNWYQQIPGKAPKLLIYDASNLETGVPSRFSGSASGTDFTFTISSLQPEDVATYYCQQYANLPPFTFGPGTKVDIK; T
Ab709TK (antibody, V domains shown) VH: QVQLVESGGGVVQPGKSLRLSCAASGFTFSSYAMHWVRLAPGKGLEWVAVISPDGKNKYYVDSVKGRSTISRDNSKNTLYLLMNSLRAEDTAVYYCATTQSLWFGQFYYIYGMDVWGQGTTVTVSS VL: QSVLTQPHSVSESPGKTITISCTGSSGSIASNYVQWYQQRPGSAPTTVIYEDTERPSGVPDRFSGSIDSSSNSASLTISGLKTEDEADYYCQSYDSNNVVFGGGTKLTVL; T
Ab287 (antibody, V domains shown) VH: QVQLVQSGAEVKKPGSSVKVSCKASGDTFSSYAISWVRQAPGQGLEWMGRIILIFGVANYAQKFQGRVTITADKSTSTAYMELSSLRSEDTAVYYCARGGFYYDSSGYHLDYWGQGTLVTVSS VL: EIVLTQSPGTLSLSPGERATLSCRPSQSVSSSYLAWYQQRPGQAPRLLIYGASSRATGIPDRFSGSGSGTDFTLTISRLEPEDFAVYYCHQYGSSPRTFGQGTKVEIK; T
Ab159 (antibody, V domains shown) VH: QVQLVESGGGLVKPGGSLRLSCAASGFTFNNAWMSWVRQAPGKGLEWVGRIKSKTDGGTTDYAAPVKGRFTFSRDDSKNTLYLQMSSLKTEDTALYYCTTADYDILTGTPASPYWGQGTLVTVSS VL: DIQMTQSPSSLSASVGDRVTITCRASQSITNYLNWYQQKPGKAPKFLIYAASSLQGGVPSRFRGSGSGTDFTLTISSLQPEDFATYYCQQTYSTLWTFGQGTKVEIK; T
Ab336 (antibody, V domains shown) VH: QVQLQQSGPGLVKPSETLSLTCTVSGGSISSYYWTWIRQPPGKGLEWIAYISYSGSTNYNPSLRSRVTISVDTSKNQFSLKLSSVTAADTAVYYCARDYYYDNSGYPDSYYGMDVWGQGTTVTVSS VL: DIQLTQSPSTLSASVGDRVTITCRASQRISSWLAWYQQKPGKAPKLLIYKASTLQSGVPSRFSGSGSGTEFTLTISSLQPDDFATYYCQQYNSFSWTFGQGTKVEIK; F
Ab175 (antibody, V domains shown) VH: EVQLVESGGGLVQPGGSLRLSCAASGIIVSSNYMTWVRQAPGKGLEWVSVLYSGGSTFYADSVKGRFTISRDNSKNMLYLQMNSLRAEDTAVYYCARDLQELGVDCWGQGTLVTVSS VL: DIQLTQSPSFLSASVGDRVTITCRASQGISSYLAWYQQKPGKAPKLLIYAASTLQSGVPSRFSGSGSGTEFTLTISSLQPEDFATYYCQQLDSYPRFGGGTKVEIK; F
Ab315 (antibody, V domains shown) VH: EVQLLESGGGLIQPGGSLRLSCAASGLIVSSNYMSWVRQAPGKGLEWVSVIYSGGSTYYADSVKGRFISSRDNSKNTLYLQMNSLRAEDTAVYYCARGELDLPYGMDVWGQGTTVTVSS VL: QAVVTQPPSVSAAPGQKVTISCSGSSSNIGNNYVSWYQQLPGTAPKLLICDTNKRPSGIPDRFSGSKSGTSATLGITGLQTGDEADYYCGTWDRSLSAGVFGGGTKLTVL; F
Ab374 (antibody, V domains shown) VH: EVQLVESGGGLIQPGGSLRLSCVASGFTVSSNYLAWVRQAPGQGLEWVSLIYPGGSTFYADSVKGRFTISRGNSNNTLYLQLNSLRTEDTAVYYCASLYRRGGDSWGQGTLVTVSS VL: DIQMTQSPSSLSASVGDRVTITCQASQDIRNYLNWYQQKPGKAPKLLIYDASNLQTGVPSRFSGRGSGTDFTFTISSLQAEDIATYYCQQYDNLPITFGQGTRLEIK; F
Ab847 (antibody, V domains shown) VH: EVQLVQSGAEVKKPGASVKVSCKASGYTFTSYDIIWVRQATGQGLEWMGWMDPSRGTTGYAQTFQGRVTMTRDTSISTAYLELNSLTSEDTAVYYCVAHIVVLDRWFDPWGQGTLVTVSS VL: DIVMTQSPSSLSASVGDRVTITCQASQDIGNFLNWCQQKPGQAPKVLIYGASNLETGVPSRFSGSGSGTDFTFTISSLQPEDIATYYCQHYDNFPPRFTFGQGTKLDIK; T

Would you kindly look at the next entry?
Req: Consider the binder Ab765 (antibody, V domains shown) VH: QVQLVESGGGVVQPGRSLRLSCAASGFTFSDYAIHWVRQAPGRGLEPVALISYDGNNKYYADSVKGRFTISRDNSKNVLYLQMNSLRADDTAVYYCARDAEGGWVAALDYWGQGTLVTVSS VL: QSALTQPRSVSGSPGQSVTISCTGTSSDVGGYNYVSWYQHHPGKAPKVMIYEVSKRPSGVPDRFSGSKSGTTASLTISGLQAEDEADYYCCSYAGTYPYVFGTGTKVTVL . Is its binding amount (%) of ACE2 protein strictly less than 2%?
Resp: T
